Substrate: O=CC=O
Assay: purified protein
Assay type: biochemical, Arabidopsis thaliana
Settings: true substrate is the hemithioacetal of GO and GSH (preformed 30 min; HTA concentration calculated with Kdiss 3.0 mM), 1.7 mM GSH, 0.5 mM Mn2+, 100 mM MOPS pH 7.0, 25 °C
metric.name: kcat (s⁻¹)
Output spec: scalar in s⁻¹, unitless text.

Form field: reported kcat of GLXI;2 (Col-0 GLXI;2) (Arabidopsis thaliana; F278I) (protein, monomer; two domains, active site 2 (His89, Glu137, Gln150, Glu201)) MAEASDLLEWPKKDNRRFLHVVYRVGDLDRTIEFYTEVFGMKLLRKRDIPEEKYSNAFLGFGPETSNFVVELTYNYGVSSYDIGTGFGHFAISTQDVSKLVENVRAKGGNVTREPGPVKGGGSVIAFVKDPDGYTFELIQRGPTPEPFCQVMLRVGDLDRAIKFYEKALGMRLLRKIERPEYKYTIGMMGYAEEYESIVLELTYNYDVTEYTKGNAYAQIAIGTDDVYKSGEVIKIVNQELGGKITREAGPLPGLGTKIVSFLDPDGWKTVLVDNKDILKELE 2.5
